Assay: NCI Yeast Anticancer Drug Screen. Data for the mlh1 rad18 strain (AID 175)
Details: S. cerevisiae mlh1 rad18 strain growth inhibition; at 50.0 µM; hits give high values
The panel holds about 79,000 compounds, 15% with a hit somewhere; the sample as a whole holds those more often. The source made the active and inactive calls. Cut-off read from the data, not from the text of the source: active = growth inhibition above about 70%; inactive = the rest.
Measured growth inhibition, listed per entry.

Examples with answers:
Looking up CC(=O)Nc1ccc(/C=N/NC(N)=O)cc1 , I see its growth inhibition listed as 9.35% (inactive)

Per the record, O=C(/C=C/c1ccc(F)c(F)c1)OCCc1ccccc1 has growth inhibition of 27.2% (inactive)

In plain terms, O=c1[nH]c(=O)n(C2CC(O)C(CO)O2)cc1Cl (configuration not stated) has a documented growth inhibition of 2.25% (inactive)

Documented growth inhibition of CCOC(=O)C1CN(CCc2ccccc2)CCC1=O (configuration not stated) : 31.8% (inactive)

// growth inhibition value for CN(C)C1C(=O)C(C(=O)NCN2CCCC2)=C(O)C2(O)C(=O)C3=C(O)c4c(O)cccc4C(C)(O)C3CC12 (configuration not stated) : 21.4% (inactive)

growth inhibition recorded for this compound, CC(C)(C)CC(C)(C)NCc1ccccc1 , is 18.3% (inactive)

Please examine the following record next.
Value of measured growth inhibition for the entry Cc1sc2nc3n(c(=O)c2c1C)N=C(c1ccccc1)CS3 : -17.2% (inactive)
